assay: physchem; details: pH 7, aqueous buffer, thermodynamic from solid
metric: solubility

>  <compound>
CC(=O)O[C@@]12CO[C@@H]1C[C@H](O)[C@@]1(C)C(=O)[C@H](O)C3=C(C)[C@@H](OC(=O)[C@H](O)[C@@H](NC(=O)OC(C)(C)C)c4ccccc4)C[C@@](O)([C@@H](OC(=O)c4ccccc4)[C@H]21)C3(C)C [uncoated DXT, Docetaxel, reference compound]

>  <metric>
solubility

>  <recordedMeasurement>
~11.8 µg/mL

$$$$

meta.source: patent US10213447B2
